Target: HNF4alpha2 (COS-7 nuclear extract) (Homo sapiens, UniProt P41235 1-474)
Sequence: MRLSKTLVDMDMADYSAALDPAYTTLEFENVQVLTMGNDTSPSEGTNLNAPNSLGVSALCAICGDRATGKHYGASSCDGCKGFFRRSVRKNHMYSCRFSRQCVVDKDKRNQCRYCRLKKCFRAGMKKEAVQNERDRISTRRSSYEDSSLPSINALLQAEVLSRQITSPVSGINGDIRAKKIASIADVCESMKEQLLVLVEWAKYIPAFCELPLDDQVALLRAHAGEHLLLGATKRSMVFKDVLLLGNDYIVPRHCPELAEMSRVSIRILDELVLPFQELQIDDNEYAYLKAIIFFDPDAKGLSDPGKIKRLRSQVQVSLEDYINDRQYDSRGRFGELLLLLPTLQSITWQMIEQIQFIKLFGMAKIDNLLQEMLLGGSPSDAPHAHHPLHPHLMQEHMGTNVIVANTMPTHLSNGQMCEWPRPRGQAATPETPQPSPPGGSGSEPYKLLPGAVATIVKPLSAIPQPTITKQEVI
Test: protein-binding microarray; COS-7 nuclear extract on double-stranded Agilent 4x180k PBM; binding buffer, salt, pH and temperature not given in the material; high values mean tight binding
Details: chain copies: 2; label: 3' end of strand 1 on the slide; dsDNA, one strand shown
Whole data set: some 18,000 sequences, median “log2 normalized intensity” near 0.39, cut for the highest 2% near 6.6. This excerpt belongs to a sample that is enriched for the highest values.
Consider the cut-off 5 log2 normalized intensity. If the recorded binding signal is strictly smaller, the label is YES; if not, the label is NO.

1. AATCCCTTAGGCTTTTGCACTTTACTCAGAGCCTAGGGAGATTAGAGTATCGGTCGA ... YES
2. ACACAGGACTTGATCCAGGGCAAAGGTCATGCCTAGGGAGATTAGAGTATCGGTCGA ... NO
3. CAGTTTGAAATTAGGCAATATGAGTAGAGCGCCTAGGGAGATTAGAGTATCGGTCGA ... YES
4. TTTGCTCCAGTTCCCAATAATTTCCTTATCGCCTAGGGAGATTAGAGTATCGGTCGA ... YES
5. TGAGTCTGGTGTTTCCCTGTTTGCTTCTGCGCCTAGGGAGATTAGAGTATCGGTCGA ... YES
6. GTCACCACCTTTTTTGGCCTTTACCCCTTGGCCTAGGGAGATTAGAGTATCGGTCGA ... YES

Continue with the next sequence.
Query block: Problem: For the sequence CAAAGGACATTTCTAAAAATAGCCTTACTTGCCTAGGGAGATTAGAGTATCGGTCGA , is binding signal under 5 log2 normalized intensity?
Result block: YES
